Assay: Human plasma protein binding (ultrafiltration)
Type: in vitro ADME
Settings: average of 1 and 10 μM
PROPERTY_MEASURED: fraction unbound at 60 min

// sample Cn1c(=O)c2c(ncn2C)n(C)c1=O [Caffeine] , its fraction unbound at 60 min was 0.685

----------
Assay: Human plasma protein binding (ultrafiltration)
Type: in vitro ADME
Details: 10 μM, mean and SEM of triplicate, read-out: % Bound (converted)
PROPERTY_MEASURED: fraction unbound at 60 min, 10 μM
Answers are plain numbers.

fraction unbound at 60 min, 10 μM reported for this molecule Cn1c(=O)c2c(ncn2C)n(C)c1=O : 0.641

----------
Assay: Brain and plasma levels of amitifadine and lactam metabolite Compound 2 in rat
Type: in vivo
Conditions: male, Sprague-Dawley, brain/plasma, po, 10 mg/kg, read-out: brain to plasma ratio
Counter-ions that a name gives are not always drawn.
PROPERTY_MEASURED: Kp at 1 h
Give bare numbers.

Quick note, Kp at 1 h for O=C1NC[C@]2(c3ccc(Cl)c(Cl)c3)C[C@H]12 [Compound 2, hydrochloride] landed at 1.3

----------
Assay: Brain and plasma levels of amitifadine and lactam metabolite Compound 2 in rat
Assay type: in vivo
Conditions: male, Sprague-Dawley, brain/plasma, po, 10 mg/kg, read-out: brain to plasma ratio
Experimental: The studies are conducted in accordance with the Institutional Animal Care and Use Committee guidelines. […] At 0.5, 1, 2, and 4 hour after dosage, animals are briefly anesthetized in a chamber containing 4% isoflurane and rapidly decapitated. Trunk blood is collected in heparinized tubes (9 units/ml whole blood), immediately chilled to 4° C., centrifuged, and the plasma is frozen at −80° C. until analyzed. Brains are quickly removed, bisected along the midline, and frozen at −80° C. until analyzed. […]
Counter-ions that a name gives are not always drawn.
PROPERTY_MEASURED: Kp at 4 h

Reported Kp at 4 h ( O=C1NC[C@]2(c3ccc(Cl)c(Cl)c3)C[C@H]12 [Compound 2, hydrochloride] ) = 1.7

----------
Target: CYP2C19 (Homo sapiens, UniProt P33261)
Sequence (P33261 whole entry): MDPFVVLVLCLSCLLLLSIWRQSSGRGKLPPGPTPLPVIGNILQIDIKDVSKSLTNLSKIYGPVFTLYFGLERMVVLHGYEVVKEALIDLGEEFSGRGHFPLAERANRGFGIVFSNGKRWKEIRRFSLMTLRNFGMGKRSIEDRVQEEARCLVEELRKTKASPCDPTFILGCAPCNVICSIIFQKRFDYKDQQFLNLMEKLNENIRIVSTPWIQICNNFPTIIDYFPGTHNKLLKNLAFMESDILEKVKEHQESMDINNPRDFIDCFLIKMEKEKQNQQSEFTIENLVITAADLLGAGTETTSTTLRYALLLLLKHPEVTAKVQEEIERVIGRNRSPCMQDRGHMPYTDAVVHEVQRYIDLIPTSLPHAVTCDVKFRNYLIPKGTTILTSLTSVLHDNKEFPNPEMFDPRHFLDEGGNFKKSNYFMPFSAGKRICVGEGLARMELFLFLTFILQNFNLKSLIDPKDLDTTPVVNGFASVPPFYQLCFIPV
Assay: Inhibition of human CYP activity in microsomes: (S)-mephenytoin 4′-hydroxylation
Details: pooled human liver microsomes, 10 to 30 min at 37° C.
PROPERTY_MEASURED: pIC50
One number for each entry, as −log10 of the molar value.

Value of pIC50 reported for the compound CC[C@@]1(c2ccccc2)C(=O)NC(=O)N(Cc2ccccc2)C1=O [(R)-N-3-benzyl-Phenobarb-ital, (R)—N-3-benzylphenobarbital] is 6.52

----------
Biological target: CYP2B6 (Homo sapiens, UniProt P20813)
Sequence (P20813 whole entry): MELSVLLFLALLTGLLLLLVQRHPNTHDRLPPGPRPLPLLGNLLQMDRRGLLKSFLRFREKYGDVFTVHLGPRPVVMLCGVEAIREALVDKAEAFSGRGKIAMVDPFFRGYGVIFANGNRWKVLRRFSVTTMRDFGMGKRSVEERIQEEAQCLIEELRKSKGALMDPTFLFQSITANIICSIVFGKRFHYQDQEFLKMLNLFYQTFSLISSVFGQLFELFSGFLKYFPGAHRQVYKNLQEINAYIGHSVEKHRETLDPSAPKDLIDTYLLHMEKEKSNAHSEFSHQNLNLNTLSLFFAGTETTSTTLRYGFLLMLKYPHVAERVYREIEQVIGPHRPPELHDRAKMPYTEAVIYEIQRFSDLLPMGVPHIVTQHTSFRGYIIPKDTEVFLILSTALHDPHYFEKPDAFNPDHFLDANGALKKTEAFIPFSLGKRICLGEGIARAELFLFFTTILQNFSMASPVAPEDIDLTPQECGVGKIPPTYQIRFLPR
Test: Inhibition of human CYP activity in microsomes: bupropion hydroxylation
Settings: pooled human liver microsomes, 10 to 30 min at 37° C.
PROPERTY_MEASURED: IC50
Don't forget the unit after the value.

Lookup result for CC(Nn1nnc2ccccc21)c1ccccc1 (stereo not shown) ; measured IC50: 60 nM

----------
Experiment: Brain and plasma levels of amitifadine and lactam metabolite Compound 2 in rat
Format: in vivo
Settings: male, Sprague-Dawley, brain/plasma, po, 10 mg/kg, read-out: brain to plasma ratio
Structures can show the parent of a compound that is named as a salt.
PROPERTY_MEASURED: Kp at 0.5 h

Kp at 0.5 h in this record for O=C1NC[C@]2(c3ccc(Cl)c(Cl)c3)C[C@H]12 [Compound 2, hydrochloride] : 1.1

----------
Assay: Human plasma protein binding (ultrafiltration)
Assay type: in vitro ADME
Details: 1 μM, mean and SEM of triplicate, read-out: % Bound (converted)
PROPERTY_MEASURED: fraction unbound at 60 min, 1 μM
One number for each entry.

The recorded fraction unbound at 60 min, 1 μM for Cn1c(=O)c2c(ncn2C)n(C)c1=O is 0.73
